Where do the numbers come from? From paper PMC9352680.

Kd: recorded values
# tested target: T1, PUF4 RNA-binding domain (Saccharomyces cerevisiae, UniProt P25339 537-888)
# T1 sequence: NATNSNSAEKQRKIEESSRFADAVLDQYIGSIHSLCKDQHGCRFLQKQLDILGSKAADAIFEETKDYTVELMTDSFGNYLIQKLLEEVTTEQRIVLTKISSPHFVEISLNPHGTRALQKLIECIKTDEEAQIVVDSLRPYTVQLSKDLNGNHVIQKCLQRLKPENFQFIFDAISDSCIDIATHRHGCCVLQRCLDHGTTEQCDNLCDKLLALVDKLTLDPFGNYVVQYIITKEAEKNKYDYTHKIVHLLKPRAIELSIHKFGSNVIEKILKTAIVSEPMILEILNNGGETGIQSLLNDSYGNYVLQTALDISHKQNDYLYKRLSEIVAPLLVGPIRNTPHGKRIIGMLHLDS
# method: Mg; RNA-MaP; 20 mM Na-HEPES pH 7.4, 30 mM KOAc, 0.75 mM MgCl2, 0.1% Tween-20, 5% glycerol, 0.1 mg/mL BSA, 2 mM DTT; 25 C; 0.0125-409.6 nM protein
# recorded conditions: tags: N-His6-TEV cleaved; C-SNAP kept, Cy3B-labelled; label: tethered on chip by stalled RNA polymerase
value type: Kd (nM)

[[record]]
binder = "Ic_S2_P4E.1_K4.1_C4.1_H4.1_A4.1_[T5G]_[A6C]_[T7C]_F4.1_[T8C]_[A9C]_T4.1 (ssRNA) RNA: UUUGAUUAAUAUGAUAUCGUUCUUUCUUGUAGCCCCUUCUUUCUCGAUAUCAUAUUAAUCUUU"
value_type = "Kd"
units_of_measure = "nM"
limit_sign = "="
numeric_result = 685

[[record]]
binder = "UCUCUUAAACACUUAUUAUAUCUCUU (ssRNA) [Id_ii_S1_P5E.4_K5.3_C5.2_[C-2A]_[T-1A]_H5.3_A5.1_F5.1_T5.2]"
value_type = "Kd"
units_of_measure = "nM"
limit_sign = ">"
numeric_result = 2300

[[record]]
binder = "UCUCUUUGUAUGUCAUCUCUU (ssRNA) [Ic_S1_P4E.1_K4.1_C4.1_H4.1_A4.1_[A6G]_F4.1_[T8C]_T4.1]"
value_type = "Kd"
units_of_measure = "nM"
limit_sign = "="
numeric_result = 384

[[record]]
binder = "Id_ii_S4_P3E.2_K3.1_C3.2_[T-1C]_H3.1_A3.1_F3.1_T3.2 (ssRNA) RNA: UUUGACAACUGAUCGUUCUUUCUCCUGUAUAUAUAUUCUUUCUCGAUCAGUUGUCUUU"
value_type = "Kd"
units_of_measure = "nM"
limit_sign = "="
numeric_result = 0.873

[[record]]
binder = "UCUCUUUGUAUCAUUUCUCUU (ssRNA) [Ic_S1_P4E.1_K4.1_C4.1_H4.1_A4.1_[A6C]_[T7A]_F4.1_[A9T]_T4.1]"
value_type = "Kd"
units_of_measure = "nM"
limit_sign = "="
numeric_result = 11.2

[[record]]
binder = "UCUCUUUGUAGUUGUUCUCUU (ssRNA) [Ic_S1_P4E.1_K4.1_C4.1_H4.1_A4.1_[T5G]_[A6T]_F4.1_[T8G]_[A9T]_T4.1]"
value_type = "Kd"
units_of_measure = "nM"
limit_sign = "="
numeric_result = 802

[[record]]
binder = "UCUCUUUGUAUACCGAUCUCUU (ssRNA) [Ic_S1_P5E.1_K5.1_C5.1_H5.1_A5.1_[T6A]_[A7C]_F5.1_[T8C]_[T9G]_T5.1]"
value_type = "Kd"
units_of_measure = "nM"
limit_sign = "="
numeric_result = 450

[[record]]
binder = "Id_ii_S2_P4E.2_K4.1_C4.2_H4.1_A4.1_F4.1_T4.2_[G10A]_[T11C] (ssRNA) RNA: UUUGAUUAAUAUGAUAUCGUUCUUUCUCUUGUAUAUUAACUUCUUUCUCGAUAUCAUAUUAAUCUUU"
value_type = "Kd"
units_of_measure = "nM"
limit_sign = "="
numeric_result = 0.566

[[record]]
binder = "Id_ii_S2_P4E.2_K4.1_C4.2_[C-2A]_[T-1A]_H4.1_A4.1_F4.1_T4.2_[G10A] (ssRNA) RNA: UUUGAUUAAUAUGAUAUCGUUCUUUCUAAUGUAUAUUAAUUUCUUUCUCGAUAUCAUAUUAAUCUUU"
value_type = "Kd"
units_of_measure = "nM"
limit_sign = "="
numeric_result = 1.93

[[record]]
binder = "Ib_S2_P5E.1_K5.1_C5.1_H5.1_A5.1_[A7G]_F5.1_[T9A]_T5.1 (ssRNA) RNA: UUUGAUUAAUAUGAUAUCGUUCUUUCUUGUAUUGUAAUUCUUUCUCGAUAUCAUAUUAAUCUUU"
value_type = "Kd"
units_of_measure = "nM"
limit_sign = "="
numeric_result = 10.6

[[record]]
binder = "ACAAACCUACACUUAUUAUCACAAAC (ssRNA) [Id_ii_S3_P5E.4_K5.3_C5.2_H5.3_A5.1_F5.1_T5.2_[A12C]]"
value_type = "Kd"
units_of_measure = "nM"
limit_sign = ">"
numeric_result = 2300

[[record]]
binder = "Ic_S4_P3E.1_K3.1_C3.1_H3.1_A3.1_[A6C]_F3.1_[T7A]_[A8T]_T3.1 (ssRNA) RNA: UUUGACAACUGAUCGUUCUUUCUUGUAUCAUUUCUUUCUCGAUCAGUUGUCUUU"
value_type = "Kd"
units_of_measure = "nM"
limit_sign = "="
numeric_result = 8.55

[[record]]
binder = "UCUCUUCUUGUAUAUAUUAUCUCUU (ssRNA) [Ie_S1_P3E.2_K3.1_C3.2_H3.1_A3.1_F3.1_[+8T]_T3.2]"
value_type = "Kd"
units_of_measure = "nM"
limit_sign = "="
numeric_result = 5.64

[[record]]
binder = "UCUCUUUGUAUAUAUAAUUCUCUU (ssRNA) [Id_ii_S1_P3E.3_K3.2_C3.2_[C-2T]_[T-1G]_H3.2_A3.1_F3.1_T3.2_[T9A]_[A10T]]"
value_type = "Kd"
units_of_measure = "nM"
limit_sign = "="
numeric_result = 8.44

